# ASSAY PROCEDURE: In vivo pharmacokinetic study in CD-1 mice, 30 mg/kg SC
# EXPERIMENTAL PARAMETERS: male, CD-1, sc; plasma, mouse, 30 mg/kg subcutaneous

MOLECULE	Tmax (min)
CC(=O)c1ccc(NC(=O)[C@@H](NC(=O)C(CC(C)C)P(=O)(O)O)C(C)C)cc1 (stereo partly shown)	45

====

# ASSAY PROCEDURE: Lipophilicity determination (HPLC-based LogD7.4)
# Assay type: physicochemical
# EXPERIMENTAL PARAMETERS: C18 column; pH 7.4, HPLC-based

COMPOUND	chromatographic logD
CC(C)CC(C(=O)N[C@H](C(=O)Nc1ccc(Cl)c(Cl)c1)C1CCC1)P(=O)(O)O (stereo partly drawn)	-0.58
CC(C)C[C@H](C(=O)N[C@H](C(=O)Nc1ccc(-n2ccnc2)cc1)C(C)C)P(=O)(O)O [(R)‐36]	-0.67
CC(C)CC(C(=O)N[C@H](C(=O)Nc1ccc(Cl)c(Cl)c1)C1CCCCC1)P(=O)(O)O (stereo partly drawn)	1.14

meta.source: paper PMC11984924
